# ASSAY_DETAILS: In vitro cytotoxicity, MTT assay
# Assay type: cell-based
# MEASUREMENT_SETUP: human, HepG2 cells; HepG2, 500 μg/mL, 24 h, control = 100; read-out: Cell Viability
MEASUREMENT_NAME: viability at 24 h, 500 μg/mL (%)
Kindly answer with a numeric value in %, unit omitted.

Given the compound Cc1cccc2cc(C=NNC(N)=S)c(N3CCCCC3)nc12 , what is its reported viability at 24 h, 500 μg/mL?
83.3

Given the compound Cc1cccc2cc(C=NNC(=S)Nc3ccccc3Cl)c(N3CCCCC3)nc12 , what is its reported viability at 24 h, 500 μg/mL?
180

Given the compound Cc1ccc2nc(N3CCCCC3)c(C=NNC(=S)NCc3ccccc3)cc2c1 , what is its reported viability at 24 h, 500 μg/mL?
109

Given the compound Cc1cccc(C)c1NC(=S)NN=Cc1cc2cccc(C)c2nc1N1CCCCC1 , what is its reported viability at 24 h, 500 μg/mL?
129

Given the compound Cc1ccc2nc(N3CCCCC3)c(C=NNC(=S)Nc3ccc(F)cc3)cc2c1 , what is its reported viability at 24 h, 500 μg/mL?
138

Given the compound Cc1cccc2cc(C=NNC(=S)Nc3cccc(F)c3)c(N3CCCCC3)nc12 , what is its reported viability at 24 h, 500 μg/mL?
112

Given the compound Cc1ccc(NC(=S)NN=Cc2cc3cc(C)ccc3nc2N2CCCCC2)c(C)c1 , what is its reported viability at 24 h, 500 μg/mL?
188

Given the compound Cc1ccc2nc(N3CCCCC3)c(C=NNC(=S)Nc3cccc(F)c3)cc2c1 , what is its reported viability at 24 h, 500 μg/mL?
99.4

Given the compound Cc1cccc2cc(C=NNC(=S)Nc3cccc(Cl)c3)c(N3CCCCC3)nc12 , what is its reported viability at 24 h, 500 μg/mL?
139

Given the compound Cc1cccc2cc(C=NNC(=S)NCc3ccccc3)c(N3CCCCC3)nc12 , what is its reported viability at 24 h, 500 μg/mL?
138

Given the compound Cc1ccc2nc(N3CCCCC3)c(C=NNC(N)=S)cc2c1 , what is its reported viability at 24 h, 500 μg/mL?
95.8

Given the compound Cc1cccc2cc(C=NNC(=S)Nc3ccccc3)c(N3CCCCC3)nc12 , what is its reported viability at 24 h, 500 μg/mL?
112

Given the compound Cc1ccc2nc(N3CCCCC3)c(C=NNC(=S)NCCN3CCOCC3)cc2c1 , what is its reported viability at 24 h, 500 μg/mL?
107

Given the compound Cc1ccc2nc(N3CCCCC3)c(C=NNC(=S)Nc3ccc(Cl)cc3)cc2c1 , what is its reported viability at 24 h, 500 μg/mL?
122

Given the compound Cc1cccc2cc(C=NNC(=S)NCCN3CCOCC3)c(N3CCCCC3)nc12 , what is its reported viability at 24 h, 500 μg/mL?
97.4

Given the compound Cc1ccc2nc(N3CCCCC3)c(C=NNC(=S)Nc3ccccc3Cl)cc2c1 , what is its reported viability at 24 h, 500 μg/mL?
196

Given the compound Cc1ccc(NC(=S)NN=Cc2cc3cccc(C)c3nc2N2CCCCC2)c(C)c1 , what is its reported viability at 24 h, 500 μg/mL?
187

These measurements were taken from paper PMC7866225.
